Source of measurements: patent US20250333501A1

Here, each record is paired with measured FACS fluorescence data.
Biological target: T1, human CLDN6 fused to GFP, expressed on engineered HEK293T cells (HEK293T-CLDN6-mGFP) (human, UniProt P56747 1-220)
T1 construct: It calls residues 1-21 a signal peptide; also called Claudin-6; HEK293T-CLDN6-mGFP Artificial CLDN6+; not shown: mGFP tag
T1 sequence: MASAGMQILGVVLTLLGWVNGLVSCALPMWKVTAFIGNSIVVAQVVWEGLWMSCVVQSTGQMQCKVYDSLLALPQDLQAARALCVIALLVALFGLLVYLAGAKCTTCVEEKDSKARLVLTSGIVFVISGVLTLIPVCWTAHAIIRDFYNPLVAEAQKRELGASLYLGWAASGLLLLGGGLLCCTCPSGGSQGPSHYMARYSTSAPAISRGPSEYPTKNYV
Assay: FACS, 0.3 µg Ab, 293T clone with human CLDN6
Keep it simple and answer with nothing but the number.

AB3-7 (antibody, V domains shown, also called Humanized AB 3-7) VH: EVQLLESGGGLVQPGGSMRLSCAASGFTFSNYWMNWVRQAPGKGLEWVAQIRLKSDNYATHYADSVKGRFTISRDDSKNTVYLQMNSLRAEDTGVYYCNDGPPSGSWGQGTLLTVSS VL: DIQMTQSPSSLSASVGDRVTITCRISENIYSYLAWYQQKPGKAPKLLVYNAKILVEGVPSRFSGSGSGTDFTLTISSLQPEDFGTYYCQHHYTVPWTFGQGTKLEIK; 106000

Consider the record given below.
// FACS fluorescence value for AB4-9 (antibody, V domains shown, Humanized; also called Humanized AB 4-9) VH: QVQLVQSGAEVKKPGASVKMSCKASGYTFTSYTMHWIRQAPGQGLEWIGYINPSSTYTHYIKKFKDRATLTADTSTSTAYMELSSLRSEDTAVYYCSRGELGGFAYWGQGTLVTVSS VL: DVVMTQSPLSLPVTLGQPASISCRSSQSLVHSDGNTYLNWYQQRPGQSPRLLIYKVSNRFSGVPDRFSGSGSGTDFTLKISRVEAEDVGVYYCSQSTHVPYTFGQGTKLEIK : 37200
